targetOrSystem: PI3Kδ (Homo sapiens)
Construct: Full length p110 subunits of PI3k α, β and δ, N-terminally labeled with polyHis tag; polyHis (N)
Sequence (O00329 whole entry): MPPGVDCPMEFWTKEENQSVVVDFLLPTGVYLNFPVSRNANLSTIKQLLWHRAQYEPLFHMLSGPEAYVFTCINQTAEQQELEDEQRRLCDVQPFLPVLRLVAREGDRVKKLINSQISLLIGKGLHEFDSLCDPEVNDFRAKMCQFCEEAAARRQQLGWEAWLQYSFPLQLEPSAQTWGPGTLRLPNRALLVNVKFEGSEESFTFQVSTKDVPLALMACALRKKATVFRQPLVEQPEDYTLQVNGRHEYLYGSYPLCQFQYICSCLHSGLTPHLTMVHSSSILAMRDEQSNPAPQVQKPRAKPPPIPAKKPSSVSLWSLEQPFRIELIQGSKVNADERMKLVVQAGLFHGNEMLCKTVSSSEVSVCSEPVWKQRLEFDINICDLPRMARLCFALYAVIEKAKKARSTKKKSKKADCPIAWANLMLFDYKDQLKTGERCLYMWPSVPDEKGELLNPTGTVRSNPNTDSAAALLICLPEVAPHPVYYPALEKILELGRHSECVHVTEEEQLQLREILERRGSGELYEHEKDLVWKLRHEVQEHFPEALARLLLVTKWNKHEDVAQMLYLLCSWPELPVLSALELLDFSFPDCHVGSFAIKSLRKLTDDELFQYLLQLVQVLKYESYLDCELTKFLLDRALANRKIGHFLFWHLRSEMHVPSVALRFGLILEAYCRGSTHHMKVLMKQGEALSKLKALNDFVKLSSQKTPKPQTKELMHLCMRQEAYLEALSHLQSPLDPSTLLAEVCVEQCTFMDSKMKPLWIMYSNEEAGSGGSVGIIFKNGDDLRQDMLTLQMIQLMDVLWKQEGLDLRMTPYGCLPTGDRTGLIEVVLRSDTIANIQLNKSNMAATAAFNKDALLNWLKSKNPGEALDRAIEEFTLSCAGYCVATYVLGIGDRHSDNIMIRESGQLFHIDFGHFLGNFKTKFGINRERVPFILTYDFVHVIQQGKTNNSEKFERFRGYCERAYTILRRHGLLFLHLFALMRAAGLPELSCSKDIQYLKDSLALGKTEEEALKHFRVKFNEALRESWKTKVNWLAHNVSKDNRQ
Sequence (P27986 whole entry partner): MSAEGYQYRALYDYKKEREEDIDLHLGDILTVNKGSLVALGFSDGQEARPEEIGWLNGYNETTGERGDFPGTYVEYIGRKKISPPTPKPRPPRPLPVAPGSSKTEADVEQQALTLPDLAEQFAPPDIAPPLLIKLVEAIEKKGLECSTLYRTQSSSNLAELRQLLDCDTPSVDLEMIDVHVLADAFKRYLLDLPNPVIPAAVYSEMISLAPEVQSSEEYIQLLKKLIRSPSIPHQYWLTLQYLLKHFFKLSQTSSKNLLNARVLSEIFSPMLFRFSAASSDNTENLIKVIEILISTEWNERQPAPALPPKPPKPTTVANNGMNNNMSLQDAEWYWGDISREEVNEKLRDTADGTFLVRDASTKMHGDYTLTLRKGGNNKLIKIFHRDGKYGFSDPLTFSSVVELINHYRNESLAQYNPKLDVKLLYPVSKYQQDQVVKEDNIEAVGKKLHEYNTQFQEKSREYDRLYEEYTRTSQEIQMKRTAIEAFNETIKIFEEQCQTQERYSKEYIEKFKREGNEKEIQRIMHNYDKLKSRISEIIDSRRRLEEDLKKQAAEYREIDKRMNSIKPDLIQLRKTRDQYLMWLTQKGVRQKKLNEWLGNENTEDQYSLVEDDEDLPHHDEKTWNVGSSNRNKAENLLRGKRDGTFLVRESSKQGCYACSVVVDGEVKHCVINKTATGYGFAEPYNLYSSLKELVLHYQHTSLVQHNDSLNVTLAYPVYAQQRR
assayDetails: PI3Kδ Alphascreen assay
Listed here are compounds together with their documented Ki.

# structureSmiles, Ki / nM
records = [
    ("Cc1c(-c2ccc(C(F)(F)F)nc2)nc2cc(F)cc(F)c2c1Nc1cc(N2CCOCC2)cnc1N1CCOCC1", 23.2),
    ("Cc1c(N2CCCCC2=O)nc2cc(F)cc(F)c2c1Nc1cncc(N2CCOCC2)c1", 203),
    ("Cc1c(-c2cccnc2)nc2cc(F)cc(F)c2c1Nc1cc(N2CCOCC2)cnc1N1CCOCC1", 8.43),
    ("Cc1c(N2CCN(C(=O)OC(C)(C)C)C[C@@H]2C)nc2cc(F)cc(F)c2c1Nc1cncc(N2CCOCC2)c1", 358),
    ("CNC(=O)N1CCN(c2nc3cc(F)cc(F)c3c(Nc3cncc(N4CCOCC4)c3)c2C)CC1", 16.5),
    ("Cc1c(N2CCN(CC(F)(F)F)CC2)nc2cc(F)cc(F)c2c1N(CC(F)(F)F)c1cncc(N2CCOCC2)c1", 493),
    ("CCOc1ccc(-c2ncc(N3CCOCC3)cc2Nc2c(C)c(-c3ccccn3)nc3cc(F)cc(F)c23)cn1", 2.62),
    ("Cc1c(-c2ccnc(N3CCNCC3)c2)nc2cc(F)cc(F)c2c1Nc1cc(N2CCOCC2)cnc1N1CCOCC1", 34.7),
    ("Cc1c(-c2ccc(N3CCNCC3)nc2)nc2cc(F)cc(F)c2c1Nc1cncc(N2CCOCC2)c1", 432),
    ("Cc1c(-c2ccccn2)nc2c(Cl)ccc(F)c2c1Nc1cc(N2CCOCC2)cnc1N1CCOCC1", 2.57),
    ("Cc1c(N2CCN(C(=O)c3ccncn3)CC2)nc2cc(F)cc(F)c2c1Nc1cncc(N2CCOCC2)c1", 99.1),
    ("Cc1c(N2CCN(S(=O)(=O)c3cccnc3)CC2)nc2cc(F)cc(F)c2c1Nc1cncc(N2CCOCC2)c1", 67.5),
    ("CCOc1ccc(-c2nc3cc(F)cc(F)c3c(Nc3cc(N4CCOCC4)cnc3N3CCOCC3)c2C)cn1", 25.5),
    ("Cc1c(-c2ccccc2S(C)(=O)=O)nc2cc(F)cc(F)c2c1Nc1cncc(N2CCOCC2)c1", 3.24),
    ("COc1cncc(-c2ncc(N3CCOCC3)cc2Nc2c(C)c(-c3ccccn3)nc3cc(F)cc(F)c23)c1", 0.512),
    ("COc1cc(-c2ncc(N3CCOCC3)cc2Nc2c(C)c(-c3ccccn3)nc3cc(F)cc(F)c23)c(F)cn1", 23.5),
    ("Cc1ccc(C(=O)N2CCN(c3nc4cc(F)cc(F)c4c(Nc4cncc(N5CCOCC5)c4)c3C)CC2)cn1", 180),
]
